test system: Escherichia coli TOP10; assay: shrunken log2 fold change of peptide-encoding DNA abundance (4.5 h post-induction vs induction); higher = less antimicrobial activity (less host growth inhibition); conditions: time post-induction: 4.5 h; library: site-saturation at positions 5, 18, 19, 20
Class membership depends on shrunken log2 fold change alone; the intervals are lower segment (below -0.2), middle segment (-0.2 to below 0.005), upper segment (0.005 or more)

Observe how each entry below is paired with its result.
monomer_sequence	class
RRIRPRPPRLPRPRPRPLQTPRP	upper segment
RRIRYRPPRLPRPRPRPKYMPRP	lower segment
RRIRHRPPRLPRPRPRPWMLPRP	middle segment
RRIRNRPPRLPRPRPRPAYSPRP	middle segment
RRIRHRPPRLPRPRPRPWIAPRP	upper segment
RRIRSRPPRLPRPRPRPYWIPRP	lower segment
RRIRWRPPRLPRPRPRPYNSPRP	middle segment
RRIRCRPPRLPRPRPRPMYDPRP	middle segment
RRIRSRPPRLPRPRPRPHPYPRP	lower segment
RRIRLRPPRLPRPRPRPFMAPRP	lower segment

Request: Could you place RRIRDRPPRLPRPRPRPYWYPRP in its proper category? Many thanks.
Result: upper segment

Request: Could you place RRIRIRPPRLPRPRPRPSNYPRP in its proper category? Many thanks.
Result: middle segment

Request: Could you place RRIRERPPRLPRPRPRPYLCPRP in its proper category? Many thanks.
Result: lower segment

Request: Could you place RRIRPRPPRLPRPRPRPSGTPRP in its proper category? Many thanks.
Result: upper segment

Request: Could you place RRIRTRPPRLPRPRPRPYIHPRP in its proper category? Many thanks.
Result: lower segment

Request: Could you place RRIRMRPPRLPRPRPRPMFRPRP in its proper category? Many thanks.
Result: middle segment

---

system: Escherichia coli TOP10; test: shrunken log2 fold change of peptide-encoding DNA abundance (4.5 h post-induction vs induction); higher = less antimicrobial activity (less host growth inhibition); settings: time post-induction: 4.5 h; library: site-saturation at positions 5, 18, 19, 20
I'd appreciate it if you could supply shrunken log2 fold change values for the items below.
Give bare numbers.

monomer_sequence	shrunken log2 fold change
RRIRRRPPRLPRPRPRPDNWPRP	0.000556
RRIRMRPPRLPRPRPRPRTPPRP	1.26

// for each sequence below, give its shrunken log2 fold change
1. RRIRERPPRLPRPRPRPSMFPRP
2. RRIRRRPPRLPRPRPRPLILPRP
3. RRIRKRPPRLPRPRPRPTIEPRP

Result:
1. -0.723
2. 0.0353
3. 0.236

---

tested on: Escherichia coli TOP10; assay: shrunken log2 fold change of peptide-encoding DNA abundance (4.5 h post-induction vs induction); higher = less antimicrobial activity (less host growth inhibition); conditions: time post-induction: 4.5 h; library: site-saturation at positions 5, 18, 19, 20
Class membership depends on shrunken log2 fold change alone; the intervals are low group: < -0.05; middle group: ≥ -0.05 and < 0.03; high group: ≥ 0.03

monomer_sequence	assay_target	class
RRIRNRPPRLPRPRPRPKGNPRP	Escherichia coli TOP10	middle group
RRIRSRPPRLPRPRPRPDLVPRP	Escherichia coli TOP10	high group
RRIRDRPPRLPRPRPRPDYLPRP	Escherichia coli TOP10	high group

Request: Could you place RRIRFRPPRLPRPRPRPSLDPRP in its proper category? Many thanks.
Result: low group

Request: Could you place RRIRMRPPRLPRPRPRPQEQPRP in its proper category? Many thanks.
Result: high group

Request: Could you place RRIRRRPPRLPRPRPRPLIPPRP in its proper category? Many thanks.
Result: middle group

---

system: Escherichia coli TOP10; assay: shrunken log2 fold change of peptide-encoding DNA abundance (4.5 h post-induction vs induction); higher = less antimicrobial activity (less host growth inhibition); details: time post-induction: 4.5 h; library: site-saturation at positions 5, 18, 19, 20
Output Met for shrunken log2 fold change not less than -0.01; output Not met otherwise.

Observe how each entry below is paired with its result.
monomer_sequence	class
RRIRVRPPRLPRPRPRPAIGPRP	Met
RRIRQRPPRLPRPRPRPQQRPRP	Met
RRIRCRPPRLPRPRPRPFGVPRP	Not met
RRIRNRPPRLPRPRPRPRKCPRP	Not met
RRIRSRPPRLPRPRPRPANGPRP	Not met
RRIRWRPPRLPRPRPRPTSHPRP	Not met
RRIRGRPPRLPRPRPRPTPYPRP	Met
RRIRPRPPRLPRPRPRPLKTPRP	Met

Request: Record RRIRWRPPRLPRPRPRPILPPRP ; criterion: shrunken log2 fold change no lower than -0.01. Met?
Result: Not met

Request: Record RRIRLRPPRLPRPRPRPHCQPRP ; criterion: shrunken log2 fold change no lower than -0.01. Met?
Result: Not met

Request: Record RRIRQRPPRLPRPRPRPVQMPRP ; criterion: shrunken log2 fold change no lower than -0.01. Met?
Result: Not met

Request: Record RRIRTRPPRLPRPRPRPNQGPRP ; criterion: shrunken log2 fold change no lower than -0.01. Met?
Result: Not met

Request: Record RRIRVRPPRLPRPRPRPSSNPRP ; criterion: shrunken log2 fold change no lower than -0.01. Met?
Result: Not met

Request: Record RRIRKRPPRLPRPRPRPSHSPRP ; criterion: shrunken log2 fold change no lower than -0.01. Met?
Result: Not met

Request: Record RRIRFRPPRLPRPRPRPWMRPRP ; criterion: shrunken log2 fold change no lower than -0.01. Met?
Result: Met

Request: Record RRIRARPPRLPRPRPRPKTGPRP ; criterion: shrunken log2 fold change no lower than -0.01. Met?
Result: Met

Request: Record RRIRVRPPRLPRPRPRPALAPRP ; criterion: shrunken log2 fold change no lower than -0.01. Met?
Result: Met

Request: Record RRIRVRPPRLPRPRPRPQYMPRP ; criterion: shrunken log2 fold change no lower than -0.01. Met?
Result: Not met

Request: Record RRIRNRPPRLPRPRPRPMSPPRP ; criterion: shrunken log2 fold change no lower than -0.01. Met?
Result: Met

---

test system: Escherichia coli TOP10; experiment: shrunken log2 fold change of peptide-encoding DNA abundance (4.5 h post-induction vs induction); higher = less antimicrobial activity (less host growth inhibition); settings: time post-induction: 4.5 h; library: site-saturation at positions 5, 18, 19, 20
Output 1.0 for shrunken log2 fold change not less than -0.2; output 0.0 otherwise.

Observe how each entry below is paired with its result.
monomer_sequence	class
RRIRIRPPRLPRPRPRPYQLPRP	0.0
RRIRQRPPRLPRPRPRPDACPRP	1.0

Request: Record RRIRNRPPRLPRPRPRPAGSPRP ; criterion: shrunken log2 fold change no lower than -0.2. Met?
Result: 1.0

Request: Record RRIRERPPRLPRPRPRPVHHPRP ; criterion: shrunken log2 fold change no lower than -0.2. Met?
Result: 0.0

Request: Record RRIRPRPPRLPRPRPRPIKVPRP ; criterion: shrunken log2 fold change no lower than -0.2. Met?
Result: 0.0

Request: Record RRIRMRPPRLPRPRPRPGQAPRP ; criterion: shrunken log2 fold change no lower than -0.2. Met?
Result: 1.0

Request: Record RRIRYRPPRLPRPRPRPGMKPRP ; criterion: shrunken log2 fold change no lower than -0.2. Met?
Result: 1.0

---

test system: Escherichia coli TOP10; assay: shrunken log2 fold change of peptide-encoding DNA abundance (4.5 h post-induction vs induction); higher = less antimicrobial activity (less host growth inhibition); settings: time post-induction: 4.5 h; library: site-saturation at positions 5, 18, 19, 20;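 note: peptides expressed intracellularly from a pBAD plasmid library in pooled LB shake-flask culture, induced with 0.3% L-arabinose, DNA abundance read by NGS, three biological replicates, DESeq2 with apeglm shrinkage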
Output 1 (yes) for shrunken log2 fold change not less than -0.005; output 0 (no) otherwise.

monomer_sequence	class
RRIRNRPPRLPRPRPRPDHRPRP	0 (no)

Request: Record RRIRMRPPRLPRPRPRPEFAPRP ; criterion: shrunken log2 fold change no lower than -0.005. Met?
Result: 1 (yes)

Request: Record RRIRQRPPRLPRPRPRPEVCPRP ; criterion: shrunken log2 fold change no lower than -0.005. Met?
Result: 1 (yes)

Request: Record RRIRCRPPRLPRPRPRPGSTPRP ; criterion: shrunken log2 fold change no lower than -0.005. Met?
Result: 0 (no)

Request: Record RRIRYRPPRLPRPRPRPGAHPRP ; criterion: shrunken log2 fold change no lower than -0.005. Met?
Result: 0 (no)

Request: Record RRIRIRPPRLPRPRPRPGQDPRP ; criterion: shrunken log2 fold change no lower than -0.005. Met?
Result: 0 (no)

Request: Record RRIRSRPPRLPRPRPRPNSNPRP ; criterion: shrunken log2 fold change no lower than -0.005. Met?
Result: 0 (no)

Request: Record RRIRHRPPRLPRPRPRPPSEPRP ; criterion: shrunken log2 fold change no lower than -0.005. Met?
Result: 0 (no)

Request: Record RRIRARPPRLPRPRPRPELQPRP ; criterion: shrunken log2 fold change no lower than -0.005. Met?
Result: 1 (yes)

Request: Record RRIRARPPRLPRPRPRPHCMPRP ; criterion: shrunken log2 fold change no lower than -0.005. Met?
Result: 1 (yes)

Request: Record RRIRRRPPRLPRPRPRPQSYPRP ; criterion: shrunken log2 fold change no lower than -0.005. Met?
Result: 0 (no)

Request: Record RRIRKRPPRLPRPRPRPLFMPRP ; criterion: shrunken log2 fold change no lower than -0.005. Met?
Result: 0 (no)

Request: Record RRIRVRPPRLPRPRPRPQFIPRP ; criterion: shrunken log2 fold change no lower than -0.005. Met?
Result: 0 (no)

Request: Record RRIRVRPPRLPRPRPRPQLRPRP ; criterion: shrunken log2 fold change no lower than -0.005. Met?
Result: 1 (yes)

Request: Record RRIRSRPPRLPRPRPRPQSYPRP ; criterion: shrunken log2 fold change no lower than -0.005. Met?
Result: 1 (yes)
